# target-desc: human OX2R (Homo sapiens, UniProt O43614)
# Construct: expressed in transfected cells; host or cells: Chinese hamster ovary (CHO) cells, kept under G418 selection
# Sequence (O43614 whole entry): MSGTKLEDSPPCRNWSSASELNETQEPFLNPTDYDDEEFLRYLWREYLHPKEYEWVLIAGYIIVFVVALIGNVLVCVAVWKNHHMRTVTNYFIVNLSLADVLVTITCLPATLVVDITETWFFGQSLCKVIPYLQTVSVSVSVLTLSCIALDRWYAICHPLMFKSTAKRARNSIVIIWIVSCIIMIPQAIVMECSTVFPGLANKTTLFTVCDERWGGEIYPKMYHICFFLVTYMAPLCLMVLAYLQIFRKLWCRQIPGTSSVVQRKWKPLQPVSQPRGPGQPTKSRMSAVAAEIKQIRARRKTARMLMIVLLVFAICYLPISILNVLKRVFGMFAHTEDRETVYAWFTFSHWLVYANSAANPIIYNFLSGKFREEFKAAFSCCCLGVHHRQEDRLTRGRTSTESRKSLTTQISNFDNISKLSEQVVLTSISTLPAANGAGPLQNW
# test-details: IPOne (IP-One) orexin receptor agonist assay in CHO cells expressing human OX2R
# Format: cell-based
# experimental-setup: human OX2R; percentage of sample raw value/mean max effect (reference compound at 1 uM with 100% activity)
reported-property: % max agonist effect (Emax) (%)
Give the value in % but do not write % after it.

CS(=O)(=O)N[C@H]1CCN(c2cc(O)c(F)cn2)[C@H]1CO[C@H]1CC[C@@H](c2ccccc2)CC1 [Example 151] : 97.7
CS(=O)(=O)N[C@H]1CCN(c2cncc(-c3ccccc3)c2)[C@H]1CO[C@H]1CC[C@@H](c2ccccc2)CC1 (relative stereo) [Example 1] : 35.7
CS(=O)(=O)NC1CCCN(c2cccnc2)C1CO[C@H]1CC[C@@H](c2ccccc2)CC1 (stereo partly drawn) [Example 159] : 100.9
COc1cnc(N2CC[C@H](NS(C)(=O)=O)[C@@H]2CO[C@H]2CC[C@@H](c3ccccc3)CC2)cc1O [Example 119] : 101.8
CS(=O)(=O)N[C@H]1CCN(c2ccc(O)cn2)[C@H]1CO[C@H]1CC[C@@H](c2ccccc2)CC1 [Example 68] : 99.1

The record that follows has no % max agonist effect (Emax) shown yet.
Query block: Given the entry COc1ccnc(N2CC[C@H](NS(C)(=O)=O)[C@@H]2CO[C@H]2CC[C@@H](c3ccccc3)CC2)c1 [Example 73] , report its measured % max agonist effect (Emax).
Result block: 99.7

* * *

# target-desc: UniProt:O43614
# test-details: IPOne (IP-One) orexin receptor agonist assay in CHO cells expressing human OX2R
# experimental-setup: CHO cells expressing human OX2R; IP-One detection; 2 hours incubation; four parameter logistic fit; read-out: OX2R Potency, EC50
reported-property: EC50 (µM)
Give the value in µM but do not write µM after it.

CS(=O)(=O)N[C@H]1CCN(c2cc(O)c(F)cn2)[C@H]1CO[C@H]1CC[C@@H](c2ccccc2)CC1 : 0.00095
Cc1cnc(N2CC[C@H](NS(C)(=O)=O)[C@@H]2CO[C@H]2CC[C@@H](c3ccccc3)CC2)cn1 : 0.123
CS(=O)(=O)N[C@H]1CCN(c2cncnc2)[C@H]1CO[C@H]1CC[C@@H](c2ccccc2)CC1 : 0.134

Query block: Given the entry CS(=O)(=O)N[C@H]1CCN(c2cc(F)cnc2O)[C@H]1CO[C@H]1CC[C@@H](c2ccccc2)CC1 , report its measured EC50.
Result block: 0.821

Query block: Given the entry Cc1nnc(-c2ccc(N3CC[C@H](NS(C)(=O)=O)[C@@H]3CO[C@H]3CC[C@@H](c4ccccc4)CC3)cc2)o1 (relative stereo) , report its measured EC50.
Result block: 10.5

* * *

// reported % max agonist effect (Emax) per item
# target-desc: human OX2R (Homo sapiens, UniProt O43614)
# Construct: expressed in transfected cells; host or cells: Chinese hamster ovary (CHO) cells, kept under G418 selection
# test-details: IPOne (IP-One) orexin receptor agonist assay in CHO cells expressing human OX2R
# Type: cell-based
# experimental-setup: human OX2R; percentage of sample raw value/mean max effect (reference compound at 1 uM with 100% activity)
Give the value in % but do not write % after it.

Some entries whose results are on file:
CC(C)(O)c1ccc(N2CC[C@H](NS(C)(=O)=O)[C@@H]2CO[C@H]2CC[C@@H](c3ccccc3)CC2)cn1 : 101.3
CS(=O)(=O)N[C@H]1CCN(c2ccc(OCCF)cc2)[C@H]1CO[C@H]1CC[C@@H](c2ccccc2)CC1 : 54.1
Cc1ncccc1N1CC[C@H](NS(C)(=O)=O)[C@@H]1CO[C@H]1CC[C@@H](c2ccccc2)CC1 : 92.4
Cn1ccc(=O)c(F)c1N1CC[C@H](NS(C)(=O)=O)[C@@H]1CO[C@H]1CC[C@@H](c2ccccc2)CC1 : 99.9
COC(=O)c1cnc(N2CC[C@H](NS(C)(=O)=O)[C@@H]2CO[C@H]2CC[C@@H](c3ccccc3)CC2)s1 : 100
CS(=O)(=O)N[C@H]1CCN(c2cncc(CO)c2)[C@H]1CO[C@H]1CC[C@@H](c2ccccc2)CC1 : 99.6
Cn1cc(N2CC[C@H](NS(C)(=O)=O)[C@@H]2CO[C@H]2CC[C@@H](c3ccccc3)CC2)ccc1=O : 88.2
Cc1ncc(N2CC[C@H](NS(C)(=O)=O)[C@@H]2CO[C@H]2CC[C@@H](c3ccccc3)CC2)cn1 : 100.0

The record that follows has no % max agonist effect (Emax) shown yet.
Query block: Given the entry CS(=O)(=O)N[C@H]1CCN(c2ncccc2O)[C@H]1CO[C@H]1CC[C@@H](c2ccccc2)CC1 [Example 135] , report its measured % max agonist effect (Emax).
Result block: 101.1

Hello, the source for this data is patent US12312332B2, in case you need it.
